Test system: SK-MEL-2
ASSAY REMARKS: NCI tumour cell line growth inhibition, 48 h
Active and inactive are the calls of the source. Cut-off read from the data, not from the text of the source: active = GI50 up to about 1.1 µM and inactive = higher.
OUTCOME MEASURE: GI50

{"COMPOUND": "O=[N+]([O-])c1ccc(/N=N\\c2c(O)ccc3ccccc23)c([N+](=O)[O-])c1", "TARGET SYSTEM": "SK-MEL-2", "RESULT": "> 100 µM (inactive)"}

Prompt: # GI50 lookup, item CCCSc1ccc2[nH]c(/N=C/c3ccco3)cc2c1
Response: 23.7 µM (inactive)

Prompt: One more compound: Cn1ncc2c(c1=O)Nc1ccccc1S2(=O)=O
Response: > 100 µM (inactive)

Prompt: One more compound: CCCC[N+](CCCC)(CCCC)CCCC.O=S(=O)([O-])ON=C1c2ccccc2-c2ccccc21
Response: > 100 µM (inactive)

Prompt: One more compound: CN(C)c1c(C2OC(CO)C(O)C2O)c(=O)c1=O (stereo not given)
Response: > 100 µM (inactive)

Prompt: One more compound: Cc1ccc(S(=O)(=O)c2ccc(NC(=O)SCCC(=O)O)cc2)cc1
Response: > 100 µM (inactive)

====

# Lookup of reported GI50 keyed by entry
Test system: SF-268
ASSAY REMARKS: NCI tumour cell line growth inhibition, 48 h
The source made the active and inactive calls. Cut-off read from the data, not from the text of the source: active = GI50 up to about 1.1 µM and inactive = higher. Non-standard residues stand in square brackets, D forms with d. Residues, ends and D or L forms follow the SMILES beside them. β3hI = CC[CH](C)[CH](N)CC(=O)O

Examples with their reported GI50 follow.
{"MOLECULE": "O=C(Cc1nc2ccccc2[nH]c1=O)c1c[nH]c2ccccc12", "RESULT": "> 100 µM (inactive)"}
{"MOLECULE": "Cc1ccc(S(=O)(=O)N2CCN3CCN(CCN(C)CCN4CCN(CC4)CCN(S(=O)(=O)c4ccc(C)cc4)CCN(S(=O)(=O)c4ccc(C)cc4)CCN(S(=O)(=O)c4ccc(C)cc4)CCN(S(=O)(=O)c4ccc(C)cc4)CCN4CCN(CCN(C)CCN5CCN(CC5)CCN(S(=O)(=O)c5ccc(C)cc5)CCN(S(=O)(=O)c5ccc(C)cc5)CCN(S(=O)(=O)c5ccc(C)cc5)CC2)CC4)CC3)cc1", "RESULT": "1.14 µM (inactive)"}
{"MOLECULE": "CCC(C)C(CC(=O)N1CCCC1C(=O)NC(C(=O)NC(C(=O)NCC(=O)NC(CC(N)=O)C(=O)NC(C(=O)NC(C(=O)NC(CCCCN)C(N)=O)C(C)CC)C(C)CC)C(C)C)C(C)CC)NC(=O)C(N)C(C)CC (stereo not drawn) (H-I[β3hI]PIVGNIIK-NH2; configuration not given here)", "RESULT": "> 50 µM (inactive)"}
{"MOLECULE": "CC(NC(=O)C(Cc1ccc(OC(=O)c2ccccc2)cc1)NC(=O)OC(C)(C)C)C(=O)NCC(=O)NC(Cc1ccccc1)C(=O)NN (configuration not stated)", "RESULT": "54.6 µM (inactive)"}
{"MOLECULE": "COc1ccc2nc3ccc(OC)cc3c([S+]([O-])CCCl)c2c1 (configuration not stated)", "RESULT": "6.76 µM (inactive)"}
{"MOLECULE": "NCCCNc1ccc2c3c(nn2CCNCCO)-c2c(O)ccc(O)c2C(=O)c13", "RESULT": "1.35 µM (inactive)"}

Then there is this molecule:
Prompt: # GI50 lookup, item O=C(NCCNCCCNC(=O)c1cc(-c2ccccc2)nc2ccccc12)c1cccc(O)c1O
Response: 2.86 µM (inactive)

The measured values listed here are drawn from ChEMBL document CHEMBL1201862.
